Measured half-life, listed per entry.
Experiment: Pharmacokinetic evaluation of CM4306, CM4308 and CM4309 in rats (mixed solution, intragastric)
Type: in vivo, SD rats
Conditions: male, SD, rat, plasma, po, 4 mg/kg, individual rat; 4 mg/kg intragastric, mixed solution in PEG400, plasma
// unit must come after the numeric part

[2H]C([2H])([2H])NC(=O)c1cc(Oc2ccc(NC(=O)Nc3ccc(Cl)c(C(F)(F)F)c3)c(F)c2)ccn1; 26.7 h

Reported half-life for CNC(=O)c1cc(Oc2ccc(NC(=O)Nc3ccc(Cl)c(C(F)(F)F)c3)cc2)ccn1 : what is it?
14.8 h

# input molecule: CNC(=O)c1cc(Oc2ccc(NC(=O)Nc3ccc(Cl)c(C(F)(F)F)c3)c(F)c2)ccn1 ; wanted: its half-life
10.1 h

* * *

Test: Pharmacokinetic evaluation of CM4309.TsOH, CM4309.HCl and CM4309.H2O in SD rats
Assay type: in vivo
Settings: male, SD, rat, plasma, po, 3 mg/kg, individual rat; 3 mg/kg (calculated by CM4309) intragastric, suspension in 0.5% CMC; CM4309 in plasma; read-out: Tmax
outcome-measure: Tmax
Give the number first and the unit second.

Cc1ccc(S(=O)(=O)O)cc1.[2H]C([2H])([2H])NC(=O)c1cc(Oc2ccc(NC(=O)Nc3ccc(Cl)c(C(F)(F)F)c3)c(F)c2)ccn1 [CM4309.TsOH]; 6 h

Alright, here's another compound for you.
Returns the measured Tmax for the input compound. Input: Cl.[2H]C([2H])([2H])NC(=O)c1cc(Oc2ccc(NC(=O)Nc3ccc(Cl)c(C(F)(F)F)c3)c(F)c2)ccn1 [CM4309.HCl]
6 h

* * *

Assay: Pharmacokinetic evaluation of CM4309.TsOH, CM4309.HCl and CM4309.H2O in SD rats
Type: in vivo
Settings: male, SD, rat, plasma, po, 3 mg/kg, individual rat; 3 mg/kg (calculated by CM4309) intragastric, suspension in 0.5% CMC; CM4309 in plasma; read-out: Cmax
outcome-measure: Cmax
Your reply should be a number followed by the unit it is expressed in.

Item under review: Cl.[2H]C([2H])([2H])NC(=O)c1cc(Oc2ccc(NC(=O)Nc3ccc(Cl)c(C(F)(F)F)c3)c(F)c2)ccn1 [CM4309.HCl] . Reported Cmax?
316 ng/mL

* * *

Assay: Pharmacokinetic evaluation of CM4309.TsOH, CM4309.HCl and CM4309.H2O in SD rats
Format: in vivo
Settings: male, SD, rat, plasma, po, 3 mg/kg, individual rat; 3 mg/kg (calculated by CM4309) intragastric, suspension in 0.5% CMC; CM4309 in plasma; read-out: AUCINF_obs
outcome-measure: AUC(0-inf)
Write the figure, then the unit, nothing else.

Cc1ccc(S(=O)(=O)O)cc1.[2H]C([2H])([2H])NC(=O)c1cc(Oc2ccc(NC(=O)Nc3ccc(Cl)c(C(F)(F)F)c3)c(F)c2)ccn1; 5700 ng·h/mL

# evaluate next
Which AUC(0-inf) reading was recorded for the compound Cl.[2H]C([2H])([2H])NC(=O)c1cc(Oc2ccc(NC(=O)Nc3ccc(Cl)c(C(F)(F)F)c3)c(F)c2)ccn1 [CM4309.HCl] ?
4610 ng·h/mL

* * *

Assay: Pharmacokinetic evaluation of CM4309.TsOH, CM4309.HCl and CM4309.H2O in SD rats
Type: in vivo
Settings: male, SD, rat, plasma, po, 3 mg/kg, individual rat; 3 mg/kg (calculated by CM4309) intragastric, suspension in 0.5% CMC; CM4309 in plasma
The following compounds are shown together with reported AUC(0-t) values.
Expressed in ng·h/mL, but write only the number.

Cc1ccc(S(=O)(=O)O)cc1.[2H]C([2H])([2H])NC(=O)c1cc(Oc2ccc(NC(=O)Nc3ccc(Cl)c(C(F)(F)F)c3)c(F)c2)ccn1; 5540

// switching to the query compound
AUC(0-t) lookup needed for Cl.[2H]C([2H])([2H])NC(=O)c1cc(Oc2ccc(NC(=O)Nc3ccc(Cl)c(C(F)(F)F)c3)c(F)c2)ccn1 [CM4309.HCl] , thanks.
4490

* * *

Reported Cmax is given for each of the following compounds.
Test: Pharmacokinetic evaluation of CM4309.TsOH, CM4309.HCl and CM4309.H2O in SD rats
Type: in vivo
Details: male, SD, rat, plasma, po, 3 mg/kg, Mean of 4 rats; 3 mg/kg (calculated by CM4309) intragastric, suspension in 0.5% CMC; CM4309 in plasma; read-out: Cmax
Respond numerically; units are ng/mL and should not be typed.

Cc1ccc(S(=O)(=O)O)cc1.[2H]C([2H])([2H])NC(=O)c1cc(Oc2ccc(NC(=O)Nc3ccc(Cl)c(C(F)(F)F)c3)c(F)c2)ccn1 [CM4309.TsOH]; 482

From here, focus on the item given below.
Can you look up the measured Cmax of Cl.[2H]C([2H])([2H])NC(=O)c1cc(Oc2ccc(NC(=O)Nc3ccc(Cl)c(C(F)(F)F)c3)c(F)c2)ccn1 [CM4309.HCl] for me?
379

* * *

Test: Pharmacokinetic evaluation of CM4309.TsOH and CM4309.H2O in Beagle dogs
Assay type: in vivo
Conditions: female, Beagle; individual dog; 2.5 mg/kg (calculated by CM4309) oral in capsule, 2×2 crossover; CM4309 in plasma; read-out: Tmax
outcome-measure: Tmax (h)
Kindly provide the numeric value in h only, without the unit symbol.

Fill in: Tmax of Cc1ccc(S(=O)(=O)O)cc1.[2H]C([2H])([2H])NC(=O)c1cc(Oc2ccc(NC(=O)Nc3ccc(Cl)c(C(F)(F)F)c3)c(F)c2)ccn1 is ___
2

* * *

Assay: Pharmacokinetic evaluation of CM4309.TsOH and CM4309.H2O in Beagle dogs
Format: in vivo
Conditions: female, Beagle, dog, plasma, po, 2.5 mg/kg, Mean of 4 dogs; 2.5 mg/kg (calculated by CM4309) oral in capsule, 2×2 crossover; CM4309 in plasma; read-out: Cmax
outcome-measure: Cmax
Put your answer as a value accompanied by its unit after it.

Would you kindly share the measured Cmax for Cc1ccc(S(=O)(=O)O)cc1.[2H]C([2H])([2H])NC(=O)c1cc(Oc2ccc(NC(=O)Nc3ccc(Cl)c(C(F)(F)F)c3)c(F)c2)ccn1 ?
0.728 µg/mL

* * *

Test: Pharmacokinetic evaluation of CM4309.TsOH, CM4309.HCl and CM4309.H2O in SD rats
Type: in vivo
Conditions: male, SD, in vivo, po; individual rat; 3 mg/kg (calculated by CM4309) intragastric, suspension in 0.5% CMC; CM4309 in plasma; read-out: Tmax
outcome-measure: Tmax (h)
Kindly provide the numeric value in h only, without the unit symbol.

Can you look up the measured Tmax of Cl.[2H]C([2H])([2H])NC(=O)c1cc(Oc2ccc(NC(=O)Nc3ccc(Cl)c(C(F)(F)F)c3)c(F)c2)ccn1 [CM4309.HCl] for me?
4

* * *

Test: Pharmacokinetic evaluation of CM4306, CM4308 and CM4309 in rats (mixed solution, intragastric)
Type: in vivo, SD rats
Settings: male, SD, rat, plasma, po, 4 mg/kg, individual rat; 4 mg/kg intragastric, mixed solution in PEG400, plasma
outcome-measure: AUC(0-inf) (ng·h/mL)
Please state the figure in ng·h/mL; there is no need to write the unit.

Reference set, count: 2
[2H]C([2H])([2H])NC(=O)c1cc(Oc2ccc(NC(=O)Nc3ccc(Cl)c(C(F)(F)F)c3)c(F)c2)ccn1; 27400
CNC(=O)c1cc(Oc2ccc(NC(=O)Nc3ccc(Cl)c(C(F)(F)F)c3)cc2)ccn1; 24600

So what does the record say about AUC(0-inf) for CNC(=O)c1cc(Oc2ccc(NC(=O)Nc3ccc(Cl)c(C(F)(F)F)c3)c(F)c2)ccn1 ?
11600

* * *

Assay: Pharmacokinetic evaluation of CM4309.TsOH, CM4309.HCl and CM4309.H2O in SD rats
Type: in vivo
Conditions: male, SD, rat, plasma, po, 3 mg/kg, Mean of 4 rats; 3 mg/kg (calculated by CM4309) intragastric, suspension in 0.5% CMC; CM4309 in plasma
outcome-measure: AUC(0-t) (ng·h/mL)
The figure you give is taken to be in ng·h/mL; do not add the unit.

Cl.[2H]C([2H])([2H])NC(=O)c1cc(Oc2ccc(NC(=O)Nc3ccc(Cl)c(C(F)(F)F)c3)c(F)c2)ccn1 [CM4309.HCl]; 5570

Pending compound:
Dear colleague, I am looking for the recorded AUC(0-t) of the following compound: Cc1ccc(S(=O)(=O)O)cc1.[2H]C([2H])([2H])NC(=O)c1cc(Oc2ccc(NC(=O)Nc3ccc(Cl)c(C(F)(F)F)c3)c(F)c2)ccn1
7180

* * *

Experiment: Pharmacokinetic evaluation of CM4309.TsOH and CM4309.H2O in Beagle dogs
Format: in vivo
Conditions: female, Beagle, dog, plasma, po, 2.5 mg/kg, Mean of 4 dogs; 2.5 mg/kg (calculated by CM4309) oral in capsule, 2×2 crossover; CM4309 in plasma
outcome-measure: AUC(0-t) (ng·h/mL)
Kindly provide the numeric value in ng·h/mL only, without the unit symbol.

Dear colleague, I am looking for the recorded AUC(0-t) of the following molecule: Cc1ccc(S(=O)(=O)O)cc1.[2H]C([2H])([2H])NC(=O)c1cc(Oc2ccc(NC(=O)Nc3ccc(Cl)c(C(F)(F)F)c3)c(F)c2)ccn1 [CM4309.TsOH]
4870

These entries and their values trace back to patent US20150175545A1.
